# Test system: L-929 (mouse fibroblast cells)
# assayProcedure: In vitro cytotoxicity (MTT assay) on L-929 cells
# Type: cell-based
# protocolConditions: Mus musculus, L929; L-929, 24 h, MTT; same values given in μM; read-out: IC50 values of cell viability
Listed here: items and their measured IC50.
propertyMeasured: IC50 (µM)

> print(dat)
                                   molecule  propertymeasured  readoutvalue
1  CCc1cc(CC)n2nc(-c3ccc(F)cc3)c(CC(=O)N(CC)CCOC)c2n1 [GMA 11]              IC50          87.8
2  CCN(CC)C(=O)Cc1c(-c2ccc(OCCF)cc2)nn2c(C)cc(C)nc12 [DPA-714, reference compound]              IC50          46.7
3  CCc1cc(CC)n2nc(-c3ccc(F)cc3)c(CC(=O)N(CC)c3ccccc3)c2n1 [GMA 15]              IC50          22.6
4  CCCN(CCC)C(=O)Cc1c(-c2ccc(F)cc2)nn2c(CC)cc(CC)nc12 [GMA 10]              IC50          37.1

* * *

# assayProcedure: In vitro cytotoxicity (MTT assay) on L-929 cells
# Format: cell-based, mouse
# protocolConditions: mouse, L-929 mouse fibroblast cells; 3.125 μg/mL, L-929, 24 h, MTT; read-out: Cell viability
// values below are reported viability at 24 h, 3.125 μg/mL
propertyMeasured: viability at 24 h, 3.125 μg/mL (%)

> print(dat)
                                   molecule  readoutvalue
1  CCc1cc(CC)n2nc(-c3ccc(F)cc3)c(CC(=O)N(CC)CCOC)c2n1 [GMA 11]          61.7
2  CCC(C)N(C)C(=O)c1cc2ccccc2c(-c2ccccc2Cl)n1 (centres unmarked) [PK11195, reference compound]          57.8
3  CCCN(CCC)C(=O)Cc1c(-c2ccc(F)cc2)nn2c(CC)cc(CC)nc12 [GMA 10]          64.5
4  CCc1cc(CC)n2nc(-c3ccc(F)cc3)c(CC(=O)N(CC)c3ccccc3)c2n1 [GMA 15]          57.9
5  CCN(CC)C(=O)Cc1c(-c2ccc(OCCF)cc2)nn2c(C)cc(C)nc12 [DPA-714, reference compound]            51

* * *

# assayProcedure: In vitro cytotoxicity (MTT assay) on L-929 cells
# Assay type: cell-based, mouse
# protocolConditions: mouse, L-929 mouse fibroblast cells; 12.5 μg/mL, L-929, 24 h, MTT; read-out: Cell viability
Rule for this label: Y means viability at 24 h, 12.5 μg/mL is less than 40%; N means viability at 24 h, 12.5 μg/mL is at least 40%.

> print(dat)
                                   compound  classname
1  CCc1cc(CC)n2nc(-c3ccc(F)cc3)c(CC(=O)N(CC)c3ccccc3)c2n1          Y
2  CCC(C)N(C)C(=O)c1cc2ccccc2c(-c2ccccc2Cl)n1 (centres unmarked) [PK11195, reference compound]          N
3  CCN(CC)C(=O)Cc1c(-c2ccc(OCCF)cc2)nn2c(C)cc(C)nc12 [DPA-714, reference compound]          N

The measured values listed here are drawn from paper PMC10142799.
